Attribution: patent US4946941A

- Tested on: Staphylococcus aureus SMITH
- Assay name: In vitro antibacterial activity, agar dilution method (MIC)
- Format: cell-based
- Study conditions: 37° C., 18-20 hrs
Assay metric: MIC (µg/mL)
Give the quantity in µg/mL, number only.

Prompt: Sample CN[C@H](CC(C)C)C(=O)N[C@H]1C(=O)N[C@@H](CC(N)=O)C(=O)N[C@H]2C(=O)N[C@H]3C(=O)N[C@H](C(=O)N[C@H](C(=O)O)c4cc(O)cc(O)c4-c4cc3ccc4O)[C@H](O[C@H]3C[C@](C)(N)[C@@H](O)[C@H](C)O3)c3ccc(c(Cl)c3)Oc3cc2cc(c3O[C@@H]2O[C@H](CO)[C@@H](O)[C@H](O)[C@H]2O[C@H]2C[C@H](O)[C@@H](O)[C@H](C)O2)Oc2ccc(cc2)[C@H]1O — what was its MIC?
Completion: 3.13

---

- Tested on: Micrococcus luteus ATCC 9341
- Assay name: In vitro antibacterial activity, agar dilution method (MIC)
- Assay type: cell-based
- Study conditions: 37° C., 18-20 hrs
Would you kindly list MIC for each of these molecules?
Give the quantity in µg/mL, number only.

Prompt: Sample CN[C@H](CC(C)C)C(=O)N[C@H]1C(=O)N[C@@H](CC(N)=O)C(=O)N[C@H]2C(=O)N[C@H]3C(=O)N[C@H](C(=O)N[C@H](C(=O)O)c4cc(O)cc(O)c4-c4cc3ccc4O)[C@H](O[C@H]3C[C@](C)(N)[C@@H](O)[C@H](C)O3)c3ccc(c(Cl)c3)Oc3cc2cc(c3O[C@@H]2O[C@H](CO)[C@@H](O)[C@H](O)[C@H]2O)Oc2ccc(cc2)[C@H]1O [Compd. C, des-(4-epi-vancosaminyl)-PA-42867-A] — what was its MIC?
Completion: 0.78

Prompt: Also check CN[C@H](CC(C)C)C(=O)N[C@H]1C(=O)N[C@@H](CC(N)=O)C(=O)N[C@H]2C(=O)N[C@H]3C(=O)N[C@H](C(=O)N[C@H](C(=O)O)c4cc(O)cc(O)c4-c4cc3ccc4O)[C@H](O[C@H]3C[C@](C)(N)[C@@H](O)[C@H](C)O3)c3ccc(c(Cl)c3)Oc3cc2cc(c3O[C@@H]2O[C@H](CO)[C@@H](O)[C@H](O)[C@H]2O[C@H]2C[C@H](O)[C@@H](O)[C@H](C)O2)Oc2ccc(cc2)[C@H]1O [Compd. B, PA-42867-B]
Completion: 1.56

Prompt: Also check CN[C@H](CC(C)C)C(=O)N[C@H]1C(=O)N[C@@H](CC(N)=O)C(=O)N[C@H]2C(=O)N[C@H]3C(=O)N[C@H](C(=O)N[C@H](C(=O)O)c4cc(O)cc(O)c4-c4cc3ccc4O)[C@H](O[C@H]3C[C@](C)(N)[C@@H](O)[C@H](C)O3)c3ccc(c(Cl)c3)Oc3cc2cc(c3O[C@@H]2O[C@H](CO)[C@@H](O)[C@H](O)[C@H]2O[C@H]2C[C@](C)(N)[C@@H](O)[C@H](C)O2)Oc2ccc(cc2)[C@H]1O [Compd. A, PA-42867-A]
Completion: 0.39

Prompt: Also check CN[C@H](CC(C)C)C(=O)N[C@H]1C(=O)N[C@@H](CC(N)=O)C(=O)N[C@H]2C(=O)N[C@H]3C(=O)N[C@H](C(=O)N[C@H](C(=O)O)c4cc(O)cc(O)c4-c4cc3ccc4O)[C@H](O[C@H]3C[C@](C)(N)[C@@H](O)[C@H](C)O3)c3ccc(c(Cl)c3)Oc3cc2cc(c3O)Oc2ccc(cc2)[C@H]1O [Compd. D]
Completion: 0.78
